log10 of IC50 values by entry
Target: human plasma kallikrein (Homo sapiens, UniProt P03952)
Sequence (P03952 391-638 limits assumed): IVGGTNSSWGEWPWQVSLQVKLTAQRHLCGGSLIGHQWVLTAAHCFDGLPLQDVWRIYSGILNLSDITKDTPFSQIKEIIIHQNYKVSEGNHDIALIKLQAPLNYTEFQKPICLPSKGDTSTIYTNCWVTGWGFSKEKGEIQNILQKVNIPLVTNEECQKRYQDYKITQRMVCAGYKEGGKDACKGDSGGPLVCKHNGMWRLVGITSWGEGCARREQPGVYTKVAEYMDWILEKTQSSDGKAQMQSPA
Sequence (P03952 20-390 partner limits assumed): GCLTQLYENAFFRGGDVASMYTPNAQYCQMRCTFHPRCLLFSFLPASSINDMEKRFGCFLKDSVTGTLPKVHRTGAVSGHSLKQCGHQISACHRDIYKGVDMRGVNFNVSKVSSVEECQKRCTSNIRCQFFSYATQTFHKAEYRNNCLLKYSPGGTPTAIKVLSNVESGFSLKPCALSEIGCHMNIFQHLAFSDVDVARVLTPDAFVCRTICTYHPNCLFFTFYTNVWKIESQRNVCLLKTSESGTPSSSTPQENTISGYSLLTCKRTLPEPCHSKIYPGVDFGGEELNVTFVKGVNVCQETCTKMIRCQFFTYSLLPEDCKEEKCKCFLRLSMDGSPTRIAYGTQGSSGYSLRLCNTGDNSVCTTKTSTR
Assay: Determination of the plasma kallikrein activity (fluorogenic peptide substrate, AMC cleavage)
Type: biochemical
Details: plasma kallikrein from Kordia 0.6 nM; substrate H-Pro-Phe-Arg-AMC; 30 min at 22° C.; read-out: IC50 [nM] (Table B, plasma kallikrein inhibition)
Method: To determine the plasma kallikrein inhibition of the substances according to the invention, a biochemical test system is used which utilizes the reaction of a peptidic plasma kallikrein substrate to determine the enzymatic activity of human plasma kallikrein. Here, plasma kallikrein cleaves from the peptic plasma kallikrein substrate the C-terminal aminomethylcoumarin (AMC), the fluorescence of which is measured. The determinations are carried out in microtitre plates. […]
OBSERVATION TYPE: log10 of IC50 (log10 of the value in nM)

| COMPOUND | log10 of IC50 |
| --- | --- |
| COc1cn(C(Cc2cc(C)on2)C(=O)Nc2ccc(C(N)=O)c(F)c2)c(=O)cc1-c1cc(Cl)ccc1C#N (racemic) | 0.79 |
| COCCC(C(=O)Nc1ccc(C(N)=O)c(F)c1)n1cc(OC)c(-c2cc(C)ccc2C#N)cc1=O (single isomer, unassigned) [Example 24] | 1.40 |
| COc1cn(C(Cc2ccn(C)n2)C(=O)Nc2ccc(C(N)=O)c(F)c2)c(=O)cc1-c1cc(Cl)ccc1C#N (racemic) | 0.56 |
| COc1cn(C(Cc2cc(C)no2)C(=O)Nc2ccc(C(N)=O)c(F)c2)c(=O)cc1-c1cc(Cl)ccc1C#N (racemic) | 1.04 |
| CCC(C(=O)Nc1ccc(C(=O)NC)c(Cl)c1)n1cc(OC)c(-c2cc(Cl)ccc2C#N)cc1=O (racemic) | 1.85 |
| CNC(=O)c1ccc(NC(=O)C(Cc2ccn(C)n2)n2cc(OC)c(-c3cc(C)ccc3C#N)cc2=O)cc1F (racemic) | 1.08 |

---

molecular target: human factor XIa (Homo sapiens, UniProt P03951); construct: purchased Kordia; experiment: Measurement of FXIa inhibition (fluorogenic peptide substrate, AMC cleavage); type: biochemical; conditions: factor XIa from Kordia 0.45 nM; substrate Boc-Glu(OBzl)-Ala-Arg-AMC; 30 min at 22° C.
Sequence (P03951 388-625 limits assumed): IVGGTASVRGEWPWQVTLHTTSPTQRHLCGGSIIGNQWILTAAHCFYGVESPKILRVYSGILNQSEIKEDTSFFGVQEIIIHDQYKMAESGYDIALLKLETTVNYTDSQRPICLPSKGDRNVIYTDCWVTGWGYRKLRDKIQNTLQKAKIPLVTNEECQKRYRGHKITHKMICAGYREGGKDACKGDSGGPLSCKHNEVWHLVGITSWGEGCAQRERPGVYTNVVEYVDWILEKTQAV
Sequence (P03951 19-387 partner limits assumed): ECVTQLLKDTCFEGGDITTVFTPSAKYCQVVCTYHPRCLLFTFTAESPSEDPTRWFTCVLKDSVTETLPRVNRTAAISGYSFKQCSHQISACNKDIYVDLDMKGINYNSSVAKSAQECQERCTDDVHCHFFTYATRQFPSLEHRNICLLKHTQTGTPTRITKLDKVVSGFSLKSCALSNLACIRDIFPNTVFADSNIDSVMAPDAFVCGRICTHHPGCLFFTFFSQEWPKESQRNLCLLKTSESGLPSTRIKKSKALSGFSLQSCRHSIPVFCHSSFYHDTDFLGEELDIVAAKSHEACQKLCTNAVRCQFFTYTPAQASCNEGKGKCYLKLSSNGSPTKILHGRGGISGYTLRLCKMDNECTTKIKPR
OBSERVATION TYPE: log10 of IC50 (log10 of the value in nM)

| COMPOUND | TGT | log10 of IC50 |
| --- | --- | --- |
| CCOCCC(C(=O)Nc1ccc(C(N)=O)c(F)c1)n1cc(OC)c(-c2cc(Cl)ccc2C#N)cc1=O (racemic) [Example 18] | human factor XIa (Homo sapiens, UniProt P03951) | 1.15 |
| COc1cn(C(Cc2ccncc2)C(=O)Nc2ccc(C(N)=O)c(F)c2)c(=O)cc1-c1cc(Cl)ccc1C#N (stereo not shown) [Example 10] | human factor XIa (Homo sapiens, UniProt P03951) | 0.95 |
| CNC(=O)c1ccc(NC(=O)C(Cc2coc(C)n2)n2cc(OC)c(-c3cc(Cl)ccc3C#N)cc2=O)cc1F (racemic) [Example 47] | human factor XIa (Homo sapiens, UniProt P03951) | 1.51 |
| CCC(C(=O)Nc1ccc(C(=O)NC)c(Cl)c1)n1cc(OC)c(-c2cc(Cl)ccc2C#N)cc1=O (racemic) [Example 27] | human factor XIa (Homo sapiens, UniProt P03951) | 1.70 |
| COc1cn(C(Cc2nnc(C3CC3)o2)C(=O)Nc2ccc(C(N)=O)c(F)c2)c(=O)cc1-c1cc(Cl)ccc1C#N (racemic) [Example 39] | human factor XIa (Homo sapiens, UniProt P03951) | 1.85 |
| N#Cc1ccc(Cl)cc1-c1cc(=O)n(C(Cc2cnco2)C(=O)Nc2ccc(C(N)=O)c(F)c2)cc1Cl (stereo not shown) [Example 4] | human factor XIa (Homo sapiens, UniProt P03951) | 1.72 |
| N#Cc1ccc(Cl)cc1-c1cc(=O)n(C(Cc2ccccn2)C(=O)Nc2ccc(C(N)=O)c(F)c2)cc1OC(F)F (stereo not shown) [Example 11] | human factor XIa (Homo sapiens, UniProt P03951) | 2.20 |
| COc1cn(C(Cc2ccn(C)n2)C(=O)Nc2ccc(C(N)=O)c(F)c2)c(=O)cc1-c1cc(C)ccc1C#N (racemic) [Example 43] | human factor XIa (Homo sapiens, UniProt P03951) | 1.08 |
| COCCC(C(=O)Nc1ccc(C(N)=O)c(F)c1)n1cc(OC)c(-c2cc(C)ccc2C#N)cc1=O (single isomer, unassigned) [Example 24] | human factor XIa (Homo sapiens, UniProt P03951) | 1.43 |
| COc1cn(C(Cc2ccncc2)C(=O)Nc2ccc(C(N)=O)c(F)c2)c(=O)cc1-c1cc(Cl)ccc1C#N (single isomer, unassigned) [Example 29] | human factor XIa (Homo sapiens, UniProt P03951) | 0.71 |
| CNC(=O)c1ccc(NC(=O)C(Cc2ccccn2)n2cc(OC)c(-c3cc(Cl)ccc3C#N)cc2=O)cc1F (racemic) [Example 30] | human factor XIa (Homo sapiens, UniProt P03951) | 0.99 |
| COc1cn(C(CCOC2CCC2)C(=O)Nc2ccc(C(N)=O)c(F)c2)c(=O)cc1-c1cc(Cl)ccc1C#N (racemic) [Example 20] | human factor XIa (Homo sapiens, UniProt P03951) | 0.87 |
| COc1cn(C(Cc2cnco2)C(=O)Nc2cc(F)c(C(N)=O)c(F)c2)c(=O)cc1-c1cc(Cl)ccc1C#N (racemic) [Example 40] | human factor XIa (Homo sapiens, UniProt P03951) | 1.53 |

---

molecular target: human plasma kallikrein (Homo sapiens); assay: Determination of the plasma kallikrein activity (fluorogenic peptide substrate, AMC cleavage); assay type: biochemical; conditions: plasma kallikrein from Kordia 0.6 nM; substrate H-Pro-Phe-Arg-AMC; 30 min at 22° C.; read-out: IC50 [nM] (Table B, plasma kallikrein inhibition)
// returns condition not met unless IC50 is strictly below 40 nM, in which case condition met

| COMPOUND | GROUP |
| --- | --- |
| COc1cn(C(Cc2cnco2)C(=O)Nc2ccc(C(N)=O)c(F)c2)c(=O)cc1-c1cc(Cl)ccc1C#N (centres unmarked) [Example 5] | condition met |
| COc1cn(C(Cc2nnc(C)o2)C(=O)Nc2ccc(C(N)=O)c(F)c2)c(=O)cc1-c1cc(Cl)ccc1C#N (racemic) | condition met |
| COc1cn(C(Cc2ccccn2)C(=O)Nc2ccc(C(N)=O)c(F)c2)c(=O)cc1-c1cc(Cl)ccc1C#N (centres unmarked) [Example 12] | condition met |
| COc1cn(C(CC2=NOCC2)C(=O)Nc2ccc(C(N)=O)c(F)c2)c(=O)cc1-c1cc(Cl)ccc1C#N (racemic) | condition met |
| COc1cn(C(CCOC(C)(C)C)C(=O)Nc2ccc(C(N)=O)c(F)c2)c(=O)cc1-c1cc(Cl)ccc1C#N (racemic) | condition met |
| COc1cn(C(CCOC(C)C)C(=O)Nc2ccc(C(N)=O)c(F)c2)c(=O)cc1-c1cc(Cl)ccc1C#N (racemic) | condition met |
| COc1cn(C(Cc2cc(C)no2)C(=O)Nc2ccc(C(N)=O)c(F)c2)c(=O)cc1-c1cc(Cl)ccc1F (centres unmarked) | condition not met |
| CNC(=O)c1ccc(NC(=O)C(Cc2coc(C)n2)n2cc(OC)c(-c3cc(Cl)ccc3C#N)cc2=O)cc1F (racemic) | condition met |
| CCC(C(=O)Nc1ccc(C(N)=O)c(F)c1)n1cc(OC)c(-c2cc(Cl)ccc2C#N)cc1=O (centres unmarked) | condition met |
| COc1cn(C(Cc2ccccn2)C(=O)Nc2ccc(C(N)=O)c(F)c2)c(=O)cc1-c1cc(Cl)ccc1C(F)F (racemic) | condition not met |
| COCCC(C(=O)Nc1ccc(C(N)=O)c(F)c1)n1cc(OC)c(-c2cc(Cl)ccc2C#N)cc1=O (racemic) | condition met |
| COc1cn(C(Cc2ccncc2)C(=O)Nc2ccc(C(N)=O)c(F)c2)c(=O)cc1-c1cc(Cl)ccc1C#N (centres unmarked) [Example 10] | condition met |
| N#Cc1ccc(Cl)cc1-c1cc(=O)n(C(Cc2ccccn2)C(=O)Nc2ccc(C(N)=O)c(F)c2)cc1Cl (centres unmarked) | condition not met |
| N#Cc1ccc(Cl)cc1-c1cc(=O)n(C(C[C@@H]2CCCCO2)C(=O)Nc2ccc(C(N)=O)c(F)c2)cc1Cl (some centres unmarked) | condition not met |

---

biological target: human plasma kallikrein (Homo sapiens, UniProt P03952); experiment: Determination of the plasma kallikrein activity (fluorogenic peptide substrate, AMC cleavage); type: biochemical; details: plasma kallikrein from Kordia 0.6 nM; substrate H-Pro-Phe-Arg-AMC; 30 min at 22° C.; read-out: IC50 [nM] (Table B, plasma kallikrein inhibition)

| MOLECULE | IC50 / nM |
| --- | --- |
| N#Cc1ccc(Cl)cc1-c1cc(=O)n(C(Cc2ccccn2)C(=O)Nc2ccc(C(N)=O)c(F)c2)cc1OC(F)F (stereo not shown) [Example 11] | 490 |
| COc1cn(C(Cc2coc(C)n2)C(=O)Nc2ccc(C(N)=O)c(F)c2)c(=O)cc1-c1cc(Cl)ccc1C#N (racemic) [Example 41] | 21 |
| COCCC(C(=O)Nc1ccc(C(N)=O)c(F)c1)n1cc(Cl)c(-c2cc(Cl)ccc2C#N)cc1=O (stereo not shown) [Example 6] | 110 |
| COc1cn(C(Cc2ncco2)C(=O)Nc2ccc(C(N)=O)c(F)c2)c(=O)cc1-c1cc(Cl)ccc1C#N (racemic) [Example 36] | 11 |
